Target: human α2β2γ1 complex (Homo sapiens)
Construct: (His)6
Sequence (P54646 whole entry): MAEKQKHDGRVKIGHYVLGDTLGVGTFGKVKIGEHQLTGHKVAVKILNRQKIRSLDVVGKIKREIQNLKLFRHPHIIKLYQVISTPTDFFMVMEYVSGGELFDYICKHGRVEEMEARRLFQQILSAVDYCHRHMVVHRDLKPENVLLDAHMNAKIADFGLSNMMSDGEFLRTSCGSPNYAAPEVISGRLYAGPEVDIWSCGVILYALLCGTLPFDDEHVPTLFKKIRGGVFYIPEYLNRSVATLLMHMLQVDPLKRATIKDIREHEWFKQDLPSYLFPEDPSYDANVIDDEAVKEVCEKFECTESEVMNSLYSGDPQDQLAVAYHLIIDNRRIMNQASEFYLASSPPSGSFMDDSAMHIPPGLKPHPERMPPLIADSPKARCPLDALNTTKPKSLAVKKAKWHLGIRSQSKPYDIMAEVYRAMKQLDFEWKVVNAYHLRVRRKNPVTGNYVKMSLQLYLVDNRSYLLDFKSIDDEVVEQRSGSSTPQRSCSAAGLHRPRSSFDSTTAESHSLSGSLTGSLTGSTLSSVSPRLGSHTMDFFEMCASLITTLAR
Sequence (O43741 whole entry partner): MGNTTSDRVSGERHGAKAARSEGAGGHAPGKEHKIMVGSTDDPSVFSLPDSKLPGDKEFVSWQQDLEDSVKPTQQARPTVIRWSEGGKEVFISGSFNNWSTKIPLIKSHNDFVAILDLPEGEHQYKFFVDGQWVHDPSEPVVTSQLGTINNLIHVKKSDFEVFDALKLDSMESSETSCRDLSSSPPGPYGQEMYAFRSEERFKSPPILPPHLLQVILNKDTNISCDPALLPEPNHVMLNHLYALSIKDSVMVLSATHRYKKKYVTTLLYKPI
Sequence (P54619 whole entry partner): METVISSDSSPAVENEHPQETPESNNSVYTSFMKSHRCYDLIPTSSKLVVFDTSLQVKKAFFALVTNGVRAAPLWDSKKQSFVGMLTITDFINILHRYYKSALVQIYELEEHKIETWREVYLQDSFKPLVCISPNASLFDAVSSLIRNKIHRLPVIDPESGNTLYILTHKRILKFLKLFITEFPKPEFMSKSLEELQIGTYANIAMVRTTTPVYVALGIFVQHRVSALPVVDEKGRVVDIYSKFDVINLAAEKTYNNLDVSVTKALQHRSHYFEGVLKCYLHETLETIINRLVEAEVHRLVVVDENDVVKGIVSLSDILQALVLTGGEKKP
Assay: Cell-free kinase assay of bacterially expressed human α2β2γ1 complex phosphorylated on Thr172 by CaMKK2
Conditions: ATP 200 µM; read-out: IC50, inhibition of human α2β2γ1 complex
QUANTITY_NAME: pIC50
Please express pIC50 as -log10 of the molar concentration.

Exercise: Using the record for CNC(=O)c1ccccc1Oc1nc(Nc2cc(OC)c(OC)c(OC)c2)ncc1Br [SBI-0206965] , report its pIC50.
Key: 6.69

Values compiled from paper PMC10778976.
